assay: ATG_GLI_CIS: Attagene CIS-FACTORIAL HepG2 Assay for human Zinc Finger Protein GLI1 (AID 2282945); conditions: HepG2, Attagene cis-factorial reporter mRNA, GLI element; actives raise or lower the signal
Calls of active or inactive are those of the source. The calls were made as follows: active = hit-call score of the fitted dose curve at least 0.9, where 1 is the maximum; inactive = score below 0.9.
The reply should name one outcome from TRUE = active, FALSE = inactive

COMPOUND: C=CC(=O)NC(C)(C)CC(C)=O
DISCRETE LABEL: FALSE

Ask: Name the outcome recorded for `COC(=O)c1cc(Oc2ccc(Cl)cc2Cl)ccc1[N+](=O)[O-]` in the assay.
Result: FALSE

Ask: Name the outcome recorded for C#CCOC(=O)/C=C(C)/C=C/CC(C)CCCC(C)C (configuration not stated) in the assay.
Result: FALSE

Ask: Name the outcome recorded for `CCCCOC(C)=O` in the assay.
Result: FALSE

Ask: Name the outcome recorded for `CCC[CH2][Sn]([Cl])([Cl])[CH2]CCC` in the assay.
Result: TRUE

Ask: Name the outcome recorded for OC(Cc1ccccc1Cl)(Cn1[nH]cnc1=S)C1(Cl)CC1 (configuration not stated) in the assay.
Result: FALSE

Ask: Name the outcome recorded for `Fc1cccc(Cl)c1CCl` in the assay.
Result: FALSE
